- Method notes: Solubility in 0.1 M aqueous D-arginine at pH 9
Outcome measure: solubility

>>> result("Oc1nc2cc(Cl)c(Cl)c(Cn3cccn3)c2nc1O")
"< 10 µg/mL"

--- query ---
Measured solubility of "Oc1nc2cc(Cl)c(Cl)c(Cn3cncn3)c2nc1O" : < 10 µg/mL

* * *

- Tested system: Glutamate NMDA receptor
- Method notes: Binding affinity at glycine binding site of NMDA receptor in rat cortical membranes by [3H]L-689,560 displacement.
Outcome measure: IC50 (nM)

>>> quantitative_result("Oc1nc2cc(Cl)c(Cl)c(Cn3ccnc3)c2nc1O")
23
>>> quantitative_result("Cc1ncn(Cc2c(Cl)c(Cl)cc3nc(O)c(O)nc23)n1")
24

[P] Oc1nc2cc(Cl)c(Cl)c(Cn3cnnc3)c2nc1O
[Q] O=c1[nH]c2cc(Cl)c(Cl)c([N+](=O)[O-])c2[nH]c1=O
[R] Cc1ncnn1Cc1c(Cl)c(Cl)cc2nc(O)c(O)nc12
[S] CCC(c1c(Cl)c(Cl)cc2nc(O)c(O)nc12)n1ccnn1 (stereo not given)
[T] CN1CCN(Cc2cn(Cc3c(Cl)c(Cl)cc4nc(O)c(O)nc34)nn2)CC1
Ascending by IC50, please: list the compounds accordingly. Output spec: labels arranged per the requested ranking.
S, Q, T, P, R

[1] Oc1nc2cc(Cl)c(Cl)c(Cn3ccnn3)c2nc1O
[2] Oc1nc2cc(Cl)c(Cl)c(Cc3ccccn3)c2nc1O
[3] Cc1nccn1Cc1c(Cl)c(Cl)cc2nc(O)c(O)nc12
[4] CCN(CC)Cc1cn(Cc2c(Cl)c(Cl)cc3nc(O)c(O)nc23)nn1
[5] CCC(c1c(Cl)c(Cl)cc2nc(O)c(O)nc12)n1ccnc1 (stereo not given)
List the 5 entries from lowest IC50 to highest IC50 value. Rank the items, then write their labels in that order.
1, 5, 4, 2, 3

[a] Oc1nc2cc(Cl)c(Cl)c(Cn3cccn3)c2nc1O
[b] Oc1nc2cc(Cl)c(Cl)c(Cn3cncn3)c2nc1O
[c] CCC(c1c(Cl)c(Cl)cc2nc(O)c(O)nc12)n1cnnc1 (stereo not given)
[d] Cn1nnc(Cc2c(Cl)c(Cl)cc3nc(O)c(O)nc23)n1
[e] Oc1nc2cc(Cl)c(Cl)cc2nc1O [2,3-DIHYDROXY-6,7-DICHLOROQUINOXALINE]
Arrange the 5 compounds by rising IC50, starting with the smallest. Answer format: the labels, ordered as requested.
c, a, b, d, e
(c: 2.6 nM, a: 5 nM, b: 25 nM, d: 78 nM, e: 2000 nM)

* * *

- Tested system: Glutamate NMDA receptor
- Method notes: Binding affinity at glycine binding site of NMDA receptor in rat cortical membranes by [3H]L-689,560 displacement.
pIC50: −log10 of the molar value.
Outcome measure: pIC50

>>> quantitative_result("CCCn1cnc(Cc2c(Cl)c(Cl)cc3nc(O)c(O)nc23)c1")
8.36

[I] CCC(c1c(Cl)c(Cl)cc2nc(O)c(O)nc12)n1cncn1 (stereo not drawn)
[II] C[C@@H]1CN(O)C(=O)[C@@H]1N
Field: lower recorded pIC50 (choose I or II ) Output the label that corresponds to your choice.
II
